system: SF-295 CNS; assay: NCI-60 one-dose screen, 48 h (100 = growth as untreated, 0 = no growth, -100 = all killed); conditions: 10 µM unless noted
The panel holds about 83,000 compounds, 20% with a hit somewhere; the sample as a whole holds those more often.
MEASURED QUANTITY: growth (%)
Answers are plain numbers, in %.

// each listed compound needs a value for growth
1. COc1cc([C@@H]2NC(=O)NC(C)=C2C(=O)Nc2nc(-c3ccc(Cl)cc3)cs2)ccc1O
2. C1=CC2(C=C1)OC21CCC2(C=CC3(C2)OC3C2CCCCC2)CC1 (configuration not stated)

Response:
[98.2, 106]

* * *

system: MDA-MB-231 breast; assay: NCI-60 one-dose screen, 48 h (100 = growth as untreated, 0 = no growth, -100 = all killed); conditions: 10 µM unless noted
This is part of a sample that, as a whole, favours compounds with a hit. Of some 83,000 tested, about 20% had one in any assay.
I'd be grateful if you could share measured growth for these entries.
Numbers only, in %.

A selection of reference data follows.
Query: Give the measured growth of O=S(=O)(c1ccccc1)n1cc2c(c1-c1ccccc1)CCc1sc(Nc3ccccc3)nc1-2 .
Response: 79.4

Query: Given the entry COc1ccc(OC)c(NC(=O)/C(C#N)=C/c2ccco2)c1 , report its measured growth.
Response: 85.1

Query: Data request, read-out growth, for COc1ccc(/C=C2\SC(=Nc3ccccc3)NC2=O)cc1
Response: -83

Query: For C1CCN(c2nc(N3CCCCC3)nc(N3CCOCC3)n2)CC1 , what is its reported growth?
Response: 93.9

Please state, for each entry, its recorded growth.
1. Nc1ccccc1-c1ccc(-c2ccc(Cl)cc2)c2c1[nH]c1ccccc12
2. Clc1ccc(-c2nnc(COc3ccc(C4=NNC(c5ccco5)C4)cc3)o2)cc1 (stereo not given)
3. Brc1ccc(Nc2nc3ccccc3nc2Nc2ccc(Br)cc2)cc1

Response:
1. 62.2
2. 82.7
3. -80.4

I have 7 compounds here; please give me growth for each one.
1. CN1C(=O)N(C)C2Nn3c(s/c(=C4\C(=O)N(CCc5ccccc5)c5ccccc54)c3=O)=NC21 (stereo not given)
2. O=C(Nc1ccc(-c2nc3cc4ccccc4cc3[nH]2)cc1)c1cccc(Br)c1
3. O=C(Nc1ccccc1O)c1ccc(Oc2cccc(C(=O)Nc3ccccc3O)c2)cc1
4. O=C(CSc1nc2ccccc2c(=O)n1-c1ccccc1)Nc1ccc(C(=O)/C=C/c2ccc(Cl)cc2)cc1
5. CCOc1ccc2c(c1)CN(Cc1ccc(Cl)cc1)CO2
6. COc1ccc(C2c3ccc4ccccc4c3Oc3ncn(CCCn4ccnc4)c(=N)c32)cc1OC (stereo not given)
7. CC/C=C\C[C@H](O)C/C=C1/C(=O)C=C[C@@H]1C/C=C\CCCC(=O)OCCS(=O)(=O)c1ccccc1

Response:
80.5
69.2
32
93.3
35.2
69.2
40.2

For each of the items listed, what is its growth?
1. COc1ccc(Nc2nc(N/N=C/c3ccc(O)cc3)nc(Nc3ccc([N+](=O)[O-])cc3)n2)cc1
2. Cc1nc2ccccc2c(/C=C/c2ccccc2)c1C(=O)/C=C/c1ccc(Cl)cc1
3. CCN1C(=O)N(CC)C2Nn3c(s/c(=C4\C(=O)N(C(C)C)c5ccccc54)c3=O)=NC21 (stereo not given)
4. COc1ccc2sc3c(NCCCN)nc4ccccc4c3c(=O)c2c1
5. O=C(Nc1ccc(Cl)cc1)N1CCN(c2ccc3nncn3n2)CC1
6. CC(=Nc1ccccc1)C1=C(O)C(Cc2ccc(F)cc2)NC1=O (stereo not given)

Response:
[109, 8.28, 24, 25.3, -55.5, 69.7]

Quick batch: growth for everything below.
1. c1ccc2cc3c(Nc4ccc(N5CCOCC5)cc4)ccnc3cc2c1
2. O=C(/C=C/c1ccc(F)cc1)c1ccc(Nc2nc(NCCO)nc(Nc3ccc(Cl)cc3)n2)cc1
3. Cc1ccc(OCCCCCCNCCO)c(C)c1

Response:
[91.3, 71.9, 18]

* * *

I'd appreciate it if you could supply growth values for the items below.
tested on: A549/ATCC NSCLC; experiment: NCI-60 one-dose screen, 48 h (100 = growth as untreated, 0 = no growth, -100 = all killed); details: 10 µM unless noted
This is part of a sample that, as a whole, favours compounds with a hit. Of some 83,000 tested, about 20% had one in any assay.
Numbers only, in %.

Query: Could you tell me which growth is on file for COc1c(B(O)O)cccc1-c1nc2ccc3n[nH]c(F)c3c2c2c1CCCC2 ?
Response: 66

Query: State the recorded growth for this entry: CCN(CC)c1cc(C)c2cc(NC(=O)c3cccc(OC)c3)ccc2n1
Response: 80

Query: Name the recorded growth for N#C/C(=C1\SC(=O)CN1c1ccccc1)c1nc2ccccc2s1 .
Response: 97

Query: Give the measured growth of O=C(/C=C/c1ccccn1)c1ccc(OCc2nnc(-c3ccc(Cl)cc3)o2)cc1 .
Response: 34.1

Now for another entry.
Query: Record request: growth value, item O=C(c1ccccc1)N(C(=S)NCCc1ccc(Cl)cc1)c1ccccc1
Response: 97.2

* * *

tested on: SNB-75 CNS; test: NCI-60 one-dose screen, 48 h (100 = growth as untreated, 0 = no growth, -100 = all killed); conditions: 10 µM unless noted
About 83,000 compounds went through this panel and 20% of them were active in at least one assay; those are over-represented in the sample as a whole. Activity calls are given as the source filed them. The calls were made as follows: active = growth percent below 10; inactive = the rest.
MEASURED QUANTITY: growth

Query: Tell me the measured growth of Oc1c(CN2CCN(c3ccccc3F)CC2)cc(Br)c2cccnc12 , please.
Response: -92.2% (active)

Query: Entry under review: CC1=C(CC(=O)c2cccc([N+](=O)[O-])c2)C(=O)c2ccccc2C1=O . Reported growth?
Response: -84.6% (active)

Shifting focus to the molecule that follows.
Query: Recorded growth of O=c1c2cc(F)ccc2sc2c(NCCN3CCCC3)nc3ccccc3c12 , please.
Response: 77.6% (inactive)

* * *

system: HS 578T breast; test: NCI-60 one-dose screen, 48 h; settings: 10 µM unless noted
Compounds without any hit were thinned out: in the full panel of roughly 83,000, 20% have a hit. The source made the active and inactive calls. The calls were made as follows: active = growth percent below 10; inactive = the rest.
Please reply with one of these outcomes: T for active, F for inactive

Query: Give the logged outcome of this assay for the following compound: CCCN1C(=O)N(CCC)C2C1NN=c1s/c(=C3\C(=O)N(C(C)C)c4ccccc43)c(=O)n12 (stereo not drawn)
Response: F

Query: Which outcome did this test record for the compound COc1ccc(-c2nc(-c3ccccc3)c(-c3ccccc3)[nH]2)cc1OC1CCCCC1 ?
Response: F

Then there is this compound:
Query: Which outcome was assigned to O=c1oc2ccc(Cl)cc2c(=O)n1-c1ccc(I)cc1F in this test?
Response: T

* * *

test system: SK-MEL-2 melanoma; assay: NCI-60 one-dose screen, 48 h (100 = growth as untreated, 0 = no growth, -100 = all killed); conditions: 10 µM unless noted
The panel holds about 83,000 compounds, 20% with a hit somewhere; the sample as a whole holds those more often.
Lab note: anything with growth at or over 80% counts as true; the rest go in false.

Observe how each entry below is paired with its result.
Query: Hi, just wondering whether c1ccc2c(c1)oc1cc3sccc3nc12 shows growth of 80% or higher.
Response: true

Query: Given N#Cc1c(N)nc2c(c1N)C(c1ccc(F)cc1)c1ccc(N)cc1O2 (stereo unspecified) , state whether its growth is at least 80%.
Response: true

Query: Given the entry COc1ccc(C2=NN(/C=C3\SC(=O)NC3=Nc3ccc(F)cc3)C(c3ccc(F)cc3)C2)cc1 (stereo unspecified) , answer whether its growth meets or surpasses 80%.
Response: true

Query: Is the recorded value of growth equal to or greater than 80% for this compound? Nc1ccc(C2c3ccccc3Oc3ccccc32)cc1
Response: true

Query: Exam item: decide whether the reported growth for COC(=O)C1=Nc2ccc(F)cc2/C1=C/c1sc(=S)[nH]c1O is at least 80%.
Response: false

Query: Assess whether reported growth for CCOc1ccc(-c2nonc2NC(=O)c2cccc(C)c2)cc1OCC sits at 80% or higher.
Response: true

Query: In plain terms: is recorded growth at least 80% for O=C(Nc1ccc(Br)cc1F)c1cc(Cl)ccc1O ?
Response: false

Query: Reported growth reaches at least 80% for Fc1ccc(Oc2ccc(Nc3ncnc4onc(-c5ccccc5)c34)cc2)cc1 ?
Response: true

Query: growth >= 80% for CCCC(=O)CC(C)=O.CCCC(=O)CC(C)=O.[Cu] ?
Response: true

Query: Please check the record CC1(O)COCCCCOc2c(CN)cccc2NC(=O)c2nc(cnc2N)-c2ccc(cc2)S(=O)(=O)C(C)(C)C1 (stereo unspecified) and state if its growth is at or above 80%.
Response: false

---
Query: Test whether the compound CCOC(=O)c1sc(-c2ccc(OS(=O)(=O)c3ccc(Br)s3)c(C=O)c2)nc1C records growth of 80% or higher.
Response: false

Query: # check: growth of O=C(Nc1ccc(F)cc1F)c1cc(Br)ccc1O is greater than or equal to 80%
Response: false

Query: # bool: growth of CCN1CCN(C(=S)SCC(=O)Nc2nc3ccc(C)cc3s2)CC1 >= 80%
Response: true

Query: Has O=C(NC1CCN(Cc2ccccc2)CC1)c1cc2nc(-c3ccc(Cl)s3)cc(C(F)(F)F)n2n1 a recorded growth greater than or equal to 80%?
Response: false

Query: growth >= 80% for CN1C(=O)N(C)C2Nn3c(s/c(=C4\C(=O)N(CCc5ccccc5)c5ccccc54)c3=O)=NC21 (stereo unspecified) ?
Response: false

Data origin: PubChem BioAssay (NCI)
